Origin of measurements: ChEMBL document CHEMBL3301361

ASSAY_METHOD_TEXT: physchem
TEST_PARAMETERS: pH 7.4 buffer
So basically: solubility thermodynamic at 7 µM or higher? That is 1. Lower than 7 µM? That is -1.

Example cases with answers are listed next.
• O=C1CN2Cc3c(ccc(Cl)c3Cl)N=C2N1 [ANAGRELIDE] = -1
• O=C(Nc1ccc(N2CCOCC2)nc1)c1nnc(Nc2cccc(OCc3ccccn3)c2)o1 = -1
• O=C(c1nnsc1S(=O)(=O)c1ccc(Cl)cc1)N1CCOCC1 = 1

Lab note: next compound to report on.
Please indicate if the recorded solubility thermodynamic for `CC(C)(C)c1csc(N2CCN(C(=O)[C@@H]3CCCC[C@H]3C(=O)NC3(C#N)CC3)CC2)n1` meets or exceeds 7 µM.
1

====

ASSAY_METHOD_TEXT: physchem
TEST_PARAMETERS: octan-1-ol/water, pH 7.4
ATTRIBUTE_MEASURED: logD
Output spec: single numeric token, no unit.

- CCn1cc(C(=O)O)c(=O)c2ccc(C)nc21: -0.1
- CCn1c2ccccc2c2cc(NC(C)=O)ccc21: 3.5
- Cc1nc(-c2ccccc2)c(-c2ccc(CN3CCC(n4c(=O)[nH]c5ccccc54)CC3)cc2)[nH]c1=O: 3.9
- Cc1ccnc2nc(C(=O)Nc3nccs3)nn12: 0.31
- Cc1cc2c(C(C)C)c(O)c(O)c(C=O)c2c(O)c1-c1c(C)cc2c(C(C)C)c(O)c(O)c(C=O)c2c1O: 2.75
- CCCCCCN1CC[C@]2(C)c3cc(O)ccc3CC1[C@@H]2C: 2.5
- O=C1O[C@]2(CN3CCC2CC3)CN1c1cccs1: 0.9
- CC(O)C(C)OC(=O)[C@@H]1CC2c3cccc4c3c(cn4C(C)C)CC2N(C)C1 (stereo partly drawn): 2.8
- CCN(CC)C(=O)c1ccc(C(c2cccc3cccnc23)N2CCNCC2)cc1 (stereo not drawn): 0.7
- CC(C)C1NCCc2c1sc1ccccc21 (stereo not drawn): 2.8

Indicate the recorded logD value for this compound: `C=CCC1(CC(C)C)C(=O)NC(=O)NC1=O`
1.48

====

ASSAY_METHOD_TEXT: in vitro
TEST_PARAMETERS: human, plasma, PPB
Reported fraction unbound at 5 h by item:
Number, no unit, nothing else.

Illustrative cases are given below, each with its answer.
• CCOc1cc2ncc(C(N)=O)c(Nc3ccc(F)cc3F)c2cc1N1CCOCC1 = 0.0836
• CN(C)CCC=C1c2ccccc2C=Cc2ccccc21 [CYCLOBENZAPRINE] = 0.0784
• C[C@@]1(C(=O)Nc2ccc(F)nc2)CCCN1c1nc(Nc2cc(C3CC3)n[nH]2)c2cccn2n1 [BMS-754807] = 0.0209
• CN[C@@H](C)C(=O)N[C@H](C(=O)N[C@H]1CCN(CCc2ccccc2)C1)C1CCCCC1 = 0.443
• CO[C@H]1CC[C@]2(CC1)Cc1ccc(-c3cncc(Br)c3)cc1C21N=C(C)C(N)=N1 (some centres undefined) = 0.139

Answer with reported fraction unbound at 5 h of `COC(=O)N[C@@H](C)C#Cc1cnc(Oc2ccc(OC(C)C)cc2)s1`
0.0034

Identify measured fraction unbound at 5 h associated with `O=C(Nc1ccc(CN2CCNCC2)cc1-c1nc2ccccc2[nH]1)c1cnc2ccccc2n1`
0.0009

Give the measured fraction unbound at 5 h for `Cc1cn([C@H]2CCCN(S(=O)(=O)c3ccc(O)c(Oc4ccc(Cl)cc4)c3)C2)c(=O)[nH]c1=O`
0.0139

Check the records and state fraction unbound at 5 h for `Cc1ccc(CO)cc1N(C)c1ccnc(Nc2cc(N3CCCOCC3)cc(N3CCOCC3)c2)n1`
0.0556
